# System: A. viscosus
# test: Growth inhibition of A. viscosus over 24 hours (bacterial optical density)
# Type: cell-based
# test.context: 24 h; 500 μl test sample added to 9.5 ml A. viscosus in TSB, 3 replicates
Recorded Bacterial optical density, 24 h by entry

{"columns": ["compound", "Bacterial optical density, 24 h"],
 "data": [
  ["C=CCn1cc[n+](C)c1.[Cl-]", 0.8440],
  ["C[N+](C)(C)CCO.O=C([O-])c1ccccc1O [Choline salicylate, choline salicylate]", 0.1539],
  ["CCOS(=O)(=O)[O-].CCn1cc[n+](C)c1 [EMIM ethylsulfate]", 0.7965],
  ["C[N+](CCO)(CCO)CCO [Tris-HMAM]", 0.9087],
  ["CC(=O)[O-].CCn1cc[n+](C)c1 [EMIM acetate]", 0.8223],
  ["C[N+](C)(C)CCO.[Cl-] [Choline chloride]", 1.0674]
]}
